# study target: matrix metalloproteinase-2 (MMP-2) (Homo sapiens)
# Sequence (P08253 110-660, species assumed): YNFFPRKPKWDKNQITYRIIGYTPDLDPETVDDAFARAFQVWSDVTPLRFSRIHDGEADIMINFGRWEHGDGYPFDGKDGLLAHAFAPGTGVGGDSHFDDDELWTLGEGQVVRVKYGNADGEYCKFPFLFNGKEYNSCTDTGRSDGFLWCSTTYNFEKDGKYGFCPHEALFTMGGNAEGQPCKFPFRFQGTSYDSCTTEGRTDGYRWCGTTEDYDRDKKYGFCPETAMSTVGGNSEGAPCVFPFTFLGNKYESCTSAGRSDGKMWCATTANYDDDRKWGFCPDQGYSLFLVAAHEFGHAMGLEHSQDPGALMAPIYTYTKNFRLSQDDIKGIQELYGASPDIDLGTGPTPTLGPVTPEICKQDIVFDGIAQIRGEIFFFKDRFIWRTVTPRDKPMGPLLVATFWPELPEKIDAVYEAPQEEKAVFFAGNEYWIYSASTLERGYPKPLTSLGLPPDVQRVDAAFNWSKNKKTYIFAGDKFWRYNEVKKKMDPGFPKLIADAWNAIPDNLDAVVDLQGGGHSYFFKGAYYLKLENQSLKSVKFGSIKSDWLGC
# assay protocol: MMP-2 inhibition assay
# Format: biochemical
assay metric: IC50 (µM)
Answer format: numeric, µM implied, no suffix.

For record `S=C1Cc2ccccc2N1` the listed IC50 is 76.6

---

# study target: human carbonic anhydrase II (hCAII) (Homo sapiens)
# assay protocol: hCAII inhibition assay
# Format: biochemical
# cond: read-out: IC50 hCAII; ± 95% confidence interval
assay metric: IC50

// IC50 lookup, molecule = S=c1[nH]c2ccccc2o1 [Compound 1, benzo[d]oxazole-2-(3H)-thione] , result: > 200 µM

---

# study target: matrix metalloproteinase-2 (MMP-2) (Homo sapiens)
# assay protocol: MMP-2 inhibition assay
# Format: biochemical
# cond: read-out: IC50 MMP-2; ± 95% confidence interval
assay metric: IC50

IC50 for S=c1[nH]c2ccccc2o1 [Compound 1, benzo[d]oxazole-2-(3H)-thione] is > 200 µM
